# Tested on: osteonectin
# ASSAY COMMENT: Western blot of osteonectin expression after exposure to ASOs
# Type: cell-based, human
# APPLIED CONDITIONS: MDA-MB231^F (growing without FBS); single exposure; lipofectamine; 10 μM
READOUT KIND: osteonectin expression in relation to untreated control (100%)
Number only, in %; omit the unit.

Please review the entries below; each comes with its answer.
SUBSTANCE: 5′-GAATCCGGTACTGTGGAAGG-3′ (antisense GAATCCGGTACTGTGGAAGG; all phosphorothioate, sugars by position and methylation of C not given here) [ASO-ON-8]
VALUE REPORTED: 38
//
SUBSTANCE: 5′-GGGGGCTGGGCAGCTGGTGG-3′ (antisense GGGGGCTGGGCAGCTGGTGG; all phosphorothioate, sugars by position and methylation of C not given here) [ASO-ON-3]
VALUE REPORTED: 22
//
SUBSTANCE: 5′- TGTACTTGTCATTGTCCAGG-3′ (antisense TGTACTTGTCATTGTCCAGG; all phosphorothioate, sugars by position and methylation of C not given here) [ASO-ON-7]
VALUE REPORTED: 32

Respond only with osteonectin expression in relation to untreated control (100%) recorded for 5′-ATGCGCAGGGGGAATTCGGT (antisense ATGCGCAGGGGGAATTCGGT; all phosphorothioate, sugars by position and methylation of C not given here) [ASO-ON-4]
31

Respond only with osteonectin expression in relation to untreated control (100%) recorded for 5′-CAAACATTTTAAACATTGGG-3′ (antisense CAAACATTTTAAACATTGGG; all phosphorothioate, sugars by position and methylation of C not given here) [ASO-ON-9]
21

====

# System: osteopontin
# ASSAY COMMENT: Western blot of osteopontin expression after exposure to ASOs
# Type: cell-based, human
# APPLIED CONDITIONS: MDA-MB231; single exposure; lipofectamine; 10 μM
READOUT KIND: osteopontin expression in relation to untreated control (100%)
Number only, in %; omit the unit.

SUBSTANCE: 5′-GTGGCCACAGCATCTGGGTA-3′ [ASO-OPN-7] (antisense GTGGCCACAGCATCTGGGTA; all phosphorothioate, sugars by position and methylation of C not given here)
TEST SYSTEM: osteopontin
VALUE REPORTED: 31

Would you kindly look at the next entry?
Supply osteopontin expression in relation to untreated control (100%) measured with osteopontin for 5′-GTTCAGGTCCTGGGCAACGG-3 (antisense GTTCAGGTCCTGGGCAACGG; all phosphorothioate, sugars by position and methylation of C not given here) [ASO-OPN-3] .
32

====

# Test system: osteonectin
# ASSAY COMMENT: Western blot of osteonectin expression after exposure to ASOs
# Type: cell-based, human
# APPLIED CONDITIONS: MDA-MB435s; single exposure; lipofectamine; 10 μM
READOUT KIND: osteonectin expression in relation to untreated control (100%)
Number only, in %; omit the unit.

SUBSTANCE: 5′- TGTACTTGTCATTGTCCAGG-3′ (antisense TGTACTTGTCATTGTCCAGG; all phosphorothioate, sugars by position and methylation of C not given here) [ASO-ON-7]
VALUE REPORTED: 64
//
SUBSTANCE: 5′-AGATCCAGGCCCTCATGGTG -3′ (antisense AGATCCAGGCCCTCATGGTG; all phosphorothioate, sugars by position and methylation of C not given here) [ASO-ON-1]
VALUE REPORTED: 46
//
SUBSTANCE: 5′-GCGAGGGAGTTCTTCTTCTA-3′ (GCGAGGGAGTTCTTCTTCTA; phosphorothioate backbone, further chemistry not given here) [NSO, reference compound]
VALUE REPORTED: 97
//
SUBSTANCE: 5′-AGGTCACAGGTCTCGAAAAA-3′ (antisense AGGTCACAGGTCTCGAAAAA; all phosphorothioate, sugars by position and methylation of C not given here) [ASO-ON-6]
VALUE REPORTED: 56
//
SUBSTANCE: 5′-GGGGGCTGGGCAGCTGGTGG-3′ (antisense GGGGGCTGGGCAGCTGGTGG; all phosphorothioate, sugars by position and methylation of C not given here) [ASO-ON-3]
VALUE REPORTED: 29
//
SUBSTANCE: 5′-GAATCCGGTACTGTGGAAGG-3′ (antisense GAATCCGGTACTGTGGAAGG; all phosphorothioate, sugars by position and methylation of C not given here) [ASO-ON-8]
VALUE REPORTED: 46
//
SUBSTANCE: 5′-TTGAAGTTTCTCTTGATTAA-3′ (antisense TTGAAGTTTCTCTTGATTAA; all phosphorothioate, sugars by position and methylation of C not given here) [ASO-ON-10]
VALUE REPORTED: 46
//
SUBSTANCE: 5′-CCATCATCAAATTCTCCTAC-3′ (antisense CCATCATCAAATTCTCCTAC; all phosphorothioate, sugars by position and methylation of C not given here) [ASO-ON-2]
VALUE REPORTED: 64
//
SUBSTANCE: 5′-ATGCGCAGGGGGAATTCGGT (antisense ATGCGCAGGGGGAATTCGGT; all phosphorothioate, sugars by position and methylation of C not given here) [ASO-ON-4]
VALUE REPORTED: 62

Would you kindly look at the next entry?
Respond only with osteonectin expression in relation to untreated control (100%) recorded for 5′-CAAACATTTTAAACATTGGG-3′ (antisense CAAACATTTTAAACATTGGG; all phosphorothioate, sugars by position and methylation of C not given here) [ASO-ON-9]
49

====

# Tested on: osteopontin
# ASSAY COMMENT: Western blot of osteopontin expression after exposure to ASOs
# Format: cell-based, human
# APPLIED CONDITIONS: MDA-MB231; single exposure; lipofectamine; 10 μM
Item-by-item account of osteopontin expression in relation to untreated control (100%)

Please review the entries below; each comes with its answer.
SUBSTANCE: 5′-CTCATGGTAGTGAGTTTTCC-3′ (antisense CTCATGGTAGTGAGTTTTCC; all phosphorothioate, sugars by position and methylation of C not given here) [ASO-OPN-1]
VALUE REPORTED: 25^2)3) %

SUBSTANCE: 5′-GTGGCCACAGCATCTGGGTA-3′ [ASO-OPN-6] (antisense GTGGCCACAGCATCTGGGTA; all phosphorothioate, sugars by position and methylation of C not given here)
VALUE REPORTED: 45%

SUBSTANCE: 5′-ATGTGGCCACAGCATCTGGG-3′ (antisense ATGTGGCCACAGCATCTGGG; all phosphorothioate, sugars by position and methylation of C not given here) [ASO-OPN-8]
VALUE REPORTED: 48%

SUBSTANCE: 5′-CTAACTTAAAAAACAAAAGA-3′ (antisense CTAACTTAAAAAACAAAAGA; all phosphorothioate, sugars by position and methylation of C not given here) [ASO-OPN-4]
VALUE REPORTED: 16%

SUBSTANCE: 5′-GCGAGGGAGTTCTTCTTCTA-3′ (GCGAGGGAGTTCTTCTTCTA; phosphorothioate backbone, further chemistry not given here) [NSO, reference compound]
VALUE REPORTED: 99.5%

Would you kindly look at the next entry?
Respond only with osteopontin expression in relation to untreated control (100%) recorded for 5′-ACACTAACTTAAAAAACAAA-3′ (antisense ACACTAACTTAAAAAACAAA; all phosphorothioate, sugars by position and methylation of C not given here) [ASO-OPN-5]
43%

====

Item-by-item account of bone sialoprotein II expression in relation to untreated control (100%)
# Tested on: bone sialoprotein II
# ASSAY COMMENT: Western blot of bone sialoprotein II expression after exposure to ASOs
# Assay type: cell-based, human
# APPLIED CONDITIONS: MDA-MB231; single exposure; lipofectamine; 10 μM
Number only, in %; omit the unit.

Please review the entries below; each comes with its answer.
SUBSTANCE: 5′-ATTTTGGTGATTGCTTCCTC-3′ (antisense ATTTTGGTGATTGCTTCCTC; all phosphorothioate, sugars by position and methylation of C not given here) [ASO-BSPII-2]
VALUE REPORTED: 38
//
SUBSTANCE: 5′-CTGCCTTCCGGTCTCTGTGG-3′ (antisense CTGCCTTCCGGTCTCTGTGG; all phosphorothioate, sugars by position and methylation of C not given here) [ASO-BSPII-8]
VALUE REPORTED: 62
//
SUBSTANCE: 5′-CTTCATCACTTTCCTTCTCT-3′ (antisense CTTCATCACTTTCCTTCTCT; all phosphorothioate, sugars by position and methylation of C not given here) [ASO-BSPII-5]
VALUE REPORTED: 27

Would you kindly look at the next entry?
Respond only with bone sialoprotein II expression in relation to untreated control (100%) recorded for 5′-ACTGGTGGTGGTAGTAATTC-3′ (antisense ACTGGTGGTGGTAGTAATTC; all phosphorothioate, sugars by position and methylation of C not given here) [ASO-BSPII-9]
35
